biological target: T1, hPD-1-his (human, UniProt Q15116 25-167); assay: SPR, Exp. 2
T1 construct: domain: IgV domain; monomer in solution; biotin-labelled where captured by streptavidin; also called biotin-hPD-1-his
T1 sequence (Q15116 other isoform, or with tags, fused parts or gaps limits assumed): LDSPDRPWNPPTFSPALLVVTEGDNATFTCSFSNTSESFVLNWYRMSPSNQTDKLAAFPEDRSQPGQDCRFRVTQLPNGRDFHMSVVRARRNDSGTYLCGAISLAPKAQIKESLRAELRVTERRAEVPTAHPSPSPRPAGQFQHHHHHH
Readout name: Kd

Example entries begin here.
| Binder | Value measured |
| --- | --- |
| 38A6 (antibody, V domains shown, also called 780_46) VH: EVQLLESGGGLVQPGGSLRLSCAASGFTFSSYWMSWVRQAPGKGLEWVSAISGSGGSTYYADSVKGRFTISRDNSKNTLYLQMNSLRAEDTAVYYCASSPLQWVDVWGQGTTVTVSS VL: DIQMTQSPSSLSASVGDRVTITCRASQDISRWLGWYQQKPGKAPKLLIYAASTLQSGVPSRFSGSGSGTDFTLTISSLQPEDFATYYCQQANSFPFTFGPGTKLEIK | < 0.586 nM |
| 33C4 (antibody, V domains shown, also called 780_39) VH: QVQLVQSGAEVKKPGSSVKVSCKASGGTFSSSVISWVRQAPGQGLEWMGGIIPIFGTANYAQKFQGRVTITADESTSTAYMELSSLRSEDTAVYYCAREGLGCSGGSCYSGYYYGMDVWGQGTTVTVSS VL: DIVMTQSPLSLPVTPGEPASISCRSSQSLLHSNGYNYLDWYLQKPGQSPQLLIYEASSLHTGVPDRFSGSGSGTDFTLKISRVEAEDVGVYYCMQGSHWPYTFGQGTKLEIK | 0.205 nM |

Now turn to the next binder.
Q. Annotate the binder 38B2 (antibody, V domains shown, 24H9 derivative, IgG; also called 780_54; hPD1 Ab (38B2)) VH: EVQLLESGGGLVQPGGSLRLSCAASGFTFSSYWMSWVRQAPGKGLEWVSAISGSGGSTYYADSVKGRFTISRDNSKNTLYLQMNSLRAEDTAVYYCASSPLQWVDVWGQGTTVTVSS VL: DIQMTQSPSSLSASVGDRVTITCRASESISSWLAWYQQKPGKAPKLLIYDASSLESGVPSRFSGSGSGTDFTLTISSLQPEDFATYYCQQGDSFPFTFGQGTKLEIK with its measured Kd.
A. 0.423 nM
